Reference source for all entries: ChEMBL document CHEMBL4513216

- Tested on: Plasmodium berghei
- procedure text: Screen against P. berghei liver stage (PbLuc), transformed with Luciferase, at 10uM
- Type: functional, HepG2
- condition parameters: tested at 10 uM
Screen size: about 69,000 compounds; about 8,600 (12%) showed an effect of 50% or more. What follows is part of a selection rich in strong results, with near analogues and random picks from the rest.

{"columns": ["compound", "INHIBITION (%)"],
 "data": [
  ["N#Cc1cc(NC(=O)c2cc[nH]n2)ccc1N1CCC(O)CC1", 9.65],
  ["Cc1nccn1-c1nccnc1C1CCCN(C2CCCC2)C1 (centres undefined)", 59.45],
  ["Cc1nccn1-c1nccnc1C1CCCN(C)C1 (centres undefined)", 34.55],
  ["Cc1cnn(-c2ccc(C(=O)N3CCN(C)CC3C)cc2)c1 (centres undefined)", -15.3]
]}

====

- Tested on: Plasmodium berghei
- procedure text: Screen against P. berghei liver stage (PbLuc), transformed with Luciferase, at 10uM
- Assay type: functional, HepG2
- condition parameters: tested at 10 uM
Hit rate of the full screen: of about 69,000 compounds, about 8,600 (12%) showed an effect of 50% or more. Many of the other results were omitted from the sample, so strong results are more common in it than they were.
The label is t for INHIBITION below 30% and f for INHIBITION equal to or exceeding 30%.

{"columns": ["molecule", "label value"],
 "data": [
  ["c1nc2c(c(N3CCOCC3)n1)CCNCC2", "t"],
  ["NC1CCC(NC(=O)c2ccc3nc(-c4ccc(F)cc4)cn3c2)CC1 (stereo not given)", "t"],
  ["CN1CCNC(=O)C12CCN(C(=O)c1ccc3[nH]c(=O)[nH]c3c1)CC2", "f"],
  ["O=C1COC2(COCCN(Cc3ccsc3)C2)CN1c1ccc(F)cc1 (stereo not given)", "t"],
  ["CN(Cc1ccc2c(c1)OCO2)C(=O)C1CC(c2cccc(F)c2)=NO1 (stereo not given)", "t"],
  ["CCOc1ccc(OCc2nc3c(c(=O)[nH]2)CCNC3)cc1", "t"],
  ["CCS(=O)(=O)N1CCC(c2nc(C)c(C)c(N3CCCC3)n2)CC1", "t"],
  ["Cn1ccc(NC(=O)CN2C[C@@H]3CC[C@H]2CN(Cc2ccccn2)C3)n1", "f"],
  ["Cc1cc(OCC(=O)N2CCCC(c3nc(C)c(C)s3)C2)no1 (stereo not given)", "t"],
  ["O=C(c1ccc(-c2cccc3c2CCNC3)o1)N1CCOCC1", "f"],
  ["Cc1cccc(CNC(=O)CC2CCN(Cc3ccccn3)CC2)n1", "t"],
  ["CSC(C)C(=O)N1CCCN(c2ncccc2C#N)CC1 (stereo not given)", "t"],
  ["CN(C)C(=O)c1coc(COc2ccccc2)n1", "t"],
  ["CCc1nnc(CN(C)C[C@@H]2CCCN3CCCC[C@H]23)o1", "t"],
  ["COc1ccc2c(c1)CN(CC(=O)NC1CCCC1)CC2", "t"],
  ["c1ccc(C2CCN(c3ncnc4c3CCNC4)CC2)cc1", "f"],
  ["c1cc(C2CCN(c3ncnc4c3CCNCC4)CC2)ccn1", "f"],
  ["Cc1cccc(CNC(=O)N(CCCO)C2CCc3ccccc32)n1 (stereo not given)", "t"],
  ["N#Cc1cccnc1N1CCCC(CO)(Cc2ccc(F)cc2)C1 (stereo not given)", "f"]
]}

====

Parameter: INHIBITION. Scope: all listed entries.
- Tested on: Plasmodium berghei
- procedure text: Screen against P. berghei liver stage (PbLuc), transformed with Luciferase, at 10uM
- Assay type: functional, HepG2
- condition parameters: tested at 10 uM
Out of some 69,000 compounds screened, about 8,600 (12%) showed an effect of 50% or more. What follows is part of a selection rich in strong results, with near analogues and random picks from the rest.
property label: INHIBITION (%)

{"columns": ["compound", "number"],
 "data": [
  ["CCOCCNC(=O)c1ccc(OC)cc1I", 14.4],
  ["Cc1noc(C)c1CN(C)CC(=O)N1CCc2sccc2C1", 14.4],
  ["CCc1nc2ccccc2c(=O)n1CC1(O)CCNCC1", 28],
  ["CCNC(=O)c1ccc(NC(=O)N(C)Cc2cc(C)on2)cc1", -41.4],
  ["COCC(=O)N1CCCC1c1cc(Nc2nnc(C)s2)nc(C)n1 (configuration not stated)", 18.2],
  ["COCCNC(=O)C1CC(=O)N(c2n[nH]c3cccc(F)c23)C1 (configuration not stated)", -23.7],
  ["CN(C)C(=O)c1cccc(C2CNCCN2C)c1 (configuration not stated)", 15.255]
]}

====

- Tested on: Plasmodium berghei
- procedure text: Screen against P. berghei liver stage (PbLuc), transformed with Luciferase, at 10uM
- Type: functional, HepG2
- condition parameters: tested at 10 uM
The whole screen tested about 69,000 compounds, of which about 8,600 (12%) showed an effect of 50% or more. Only a selection was taken, and strong results are over-represented in it overall.
Class membership depends on INHIBITION alone; the intervals are label 0 (below 20%), label 1 (20% to below 40%), label 2 (40% or more)

{"columns": ["compound", "target", "label value"],
 "data": [
  ["CC(=O)N1CCCN(Cc2csc(-c3ncccn3)n2)CC1", "Plasmodium berghei", "label 1"],
  ["CC1(C)CN(Cc2cc(C3CCCCC3)no2)CC[C@]1(C)O", "Plasmodium berghei", "label 2"],
  ["O=C(NCCO)c1coc(CN2CCN(c3ccccc3F)CC2)n1", "Plasmodium berghei", "label 1"],
  ["Cc1cc(C(F)(F)F)nc(CCNC(C)Cn2cncn2)n1 (stereo not given)", "Plasmodium berghei", "label 0"],
  ["CN(C)Cc1noc2c1CN(Cc1ccsc1)CC2", "Plasmodium berghei", "label 0"],
  ["COc1ccccc1OC1(C(=O)O)CCN(c2nccnc2C)CC1", "Plasmodium berghei", "label 0"],
  ["Cc1ccc(-c2nc(CN3CCN(C(=O)C4CC4)CC3)cs2)o1", "Plasmodium berghei", "label 0"],
  ["CCc1cc(NCc2cc3n(n2)CCCN(S(C)(=O)=O)C3)nc(C)n1", "Plasmodium berghei", "label 2"],
  ["COc1ccccc1OC1(C(=O)O)CCN(c2ncccc2F)CC1", "Plasmodium berghei", "label 1"],
  ["O=C(O)C1CCCN1c1nc(C2CC2)cc(C(F)(F)F)n1 (stereo not given)", "Plasmodium berghei", "label 0"],
  ["CC(=O)Nc1ccc(SCC(=O)NCC2CCCO2)nn1 (stereo not given)", "Plasmodium berghei", "label 0"],
  ["Cc1cnc(N2CCCC3(CCN(Cc4csc(C)n4)C3=O)C2)nc1 (stereo not given)", "Plasmodium berghei", "label 0"],
  ["C[C@@H]1CN(Cc2cc(C3CCCCC3)no2)CC[C@]1(C)O", "Plasmodium berghei", "label 2"],
  ["O=C(NCC1CCCCO1)c1cc(Cn2cnc3ccccc32)[nH]n1 (stereo not given)", "Plasmodium berghei", "label 1"],
  ["CSCCCNC(=O)c1coc(Cn2cnc3ccccc32)n1", "Plasmodium berghei", "label 1"],
  ["OC(c1ccccc1)C1CCN(Cc2csc(-c3ncccn3)n2)CC1 (stereo not given)", "Plasmodium berghei", "label 2"],
  ["Cc1cc(F)cc(CN2CCCn3nc(CNS(C)(=O)=O)cc3C2)c1", "Plasmodium berghei", "label 1"],
  ["CC(O)CN1CCN(Cc2csc(-c3ncccn3)n2)CC1 (stereo not given)", "Plasmodium berghei", "label 2"],
  ["CCc1nc(C)sc1CN1CC[C@@](O)(C2CC2)[C@H](C)C1", "Plasmodium berghei", "label 1"],
  ["Cc1ccc2[nH]c(C(=O)N3CCCC3Cn3cccn3)cc2c1 (stereo not given)", "Plasmodium berghei", "label 0"],
  ["CS(=O)(=O)N1CCN(Cc2csc(-c3ncccn3)n2)CC1", "Plasmodium berghei", "label 2"],
  ["O=C(Cc1cccs1)N1CCC(O)(CN2CCc3ccccc3C2)C1 (stereo not given)", "Plasmodium berghei", "label 1"],
  ["COc1ccc(CN2C[C@@H](OCc3ccccn3)[C@H]3COC[C@H]32)cc1", "Plasmodium berghei", "label 1"],
  ["Cc1cc(N)nc(C2(C)CCCN2C(=O)c2cnccn2)n1 (stereo not given)", "Plasmodium berghei", "label 0"],
  ["C[C@@H]1CN(Cc2c[nH]c(CC3CCCC3)n2)CC[C@]1(C)O", "Plasmodium berghei", "label 0"],
  ["COc1ccccc1OC1(C(=O)O)CCN(c2nccnc2OC)CC1", "Plasmodium berghei", "label 0"],
  ["O=C(CCCN1CCOC1=O)Nc1cnn(-c2ccccc2Cl)c1", "Plasmodium berghei", "label 1"],
  ["Cc1nnsc1CN1CC[C@@](O)(C2CCC2)[C@H](C)C1", "Plasmodium berghei", "label 2"],
  ["NC1CCCCN(Cc2cc(C3CCCCC3)no2)C1 (stereo not given)", "Plasmodium berghei", "label 2"],
  ["COc1ccc(CCNC(=O)Cn2ncc3c2c(C)nn3C)cc1", "Plasmodium berghei", "label 1"],
  ["CC[C@@]1(O)CCN(Cc2cc(C3CCCCC3)no2)C[C@H]1O", "Plasmodium berghei", "label 2"],
  ["Cc1cccc(CN2CCc3onc(CN(C)C)c3C2)n1", "Plasmodium berghei", "label 0"],
  ["CC(C)C(=O)N1CCN(Cc2csc(-c3ccccn3)n2)CC1", "Plasmodium berghei", "label 2"],
  ["O=C(c1ccc(C2CCCN2C(=O)c2ccc[nH]2)s1)N1CCSCC1 (stereo not given)", "Plasmodium berghei", "label 0"],
  ["COc1cccc(Nc2nc(C3CCCNC3)c3sc(C)c(C)n23)c1 (stereo not given)", "Plasmodium berghei", "label 0"],
  ["CC(C)C(=O)N1CCN(Cc2csc(-c3ncccn3)n2)CC1", "Plasmodium berghei", "label 2"],
  ["CC(C)c1nc(CN2CCN(Cc3ccccn3)CC2)cs1", "Plasmodium berghei", "label 0"],
  ["Cc1cc(C)cc(CN2C[C@@H]3OCCN(CC(=O)N(C)C)[C@@H]3C2)c1", "Plasmodium berghei", "label 2"],
  ["Cc1ccc(CN2CCC[C@]3(C(=O)O)CN(CC4CC4)C[C@@H]3C2)s1", "Plasmodium berghei", "label 0"],
  ["O=C(NCCn1ccnc1)N1CCCC1c1ccc2c(c1)OCCO2 (stereo not given)", "Plasmodium berghei", "label 0"],
  ["Cn1cnc(-c2nc(C(=O)NCC3CCCO3)c3ccccn23)c1 (stereo not given)", "Plasmodium berghei", "label 0"]
]}
